target: mGluR5 (Rattus norvegicus); assay: IC50 column under 'Biological Activity' (assay not identified in the shown text; not the binding Ki)
Sequence (P31424 21-1203): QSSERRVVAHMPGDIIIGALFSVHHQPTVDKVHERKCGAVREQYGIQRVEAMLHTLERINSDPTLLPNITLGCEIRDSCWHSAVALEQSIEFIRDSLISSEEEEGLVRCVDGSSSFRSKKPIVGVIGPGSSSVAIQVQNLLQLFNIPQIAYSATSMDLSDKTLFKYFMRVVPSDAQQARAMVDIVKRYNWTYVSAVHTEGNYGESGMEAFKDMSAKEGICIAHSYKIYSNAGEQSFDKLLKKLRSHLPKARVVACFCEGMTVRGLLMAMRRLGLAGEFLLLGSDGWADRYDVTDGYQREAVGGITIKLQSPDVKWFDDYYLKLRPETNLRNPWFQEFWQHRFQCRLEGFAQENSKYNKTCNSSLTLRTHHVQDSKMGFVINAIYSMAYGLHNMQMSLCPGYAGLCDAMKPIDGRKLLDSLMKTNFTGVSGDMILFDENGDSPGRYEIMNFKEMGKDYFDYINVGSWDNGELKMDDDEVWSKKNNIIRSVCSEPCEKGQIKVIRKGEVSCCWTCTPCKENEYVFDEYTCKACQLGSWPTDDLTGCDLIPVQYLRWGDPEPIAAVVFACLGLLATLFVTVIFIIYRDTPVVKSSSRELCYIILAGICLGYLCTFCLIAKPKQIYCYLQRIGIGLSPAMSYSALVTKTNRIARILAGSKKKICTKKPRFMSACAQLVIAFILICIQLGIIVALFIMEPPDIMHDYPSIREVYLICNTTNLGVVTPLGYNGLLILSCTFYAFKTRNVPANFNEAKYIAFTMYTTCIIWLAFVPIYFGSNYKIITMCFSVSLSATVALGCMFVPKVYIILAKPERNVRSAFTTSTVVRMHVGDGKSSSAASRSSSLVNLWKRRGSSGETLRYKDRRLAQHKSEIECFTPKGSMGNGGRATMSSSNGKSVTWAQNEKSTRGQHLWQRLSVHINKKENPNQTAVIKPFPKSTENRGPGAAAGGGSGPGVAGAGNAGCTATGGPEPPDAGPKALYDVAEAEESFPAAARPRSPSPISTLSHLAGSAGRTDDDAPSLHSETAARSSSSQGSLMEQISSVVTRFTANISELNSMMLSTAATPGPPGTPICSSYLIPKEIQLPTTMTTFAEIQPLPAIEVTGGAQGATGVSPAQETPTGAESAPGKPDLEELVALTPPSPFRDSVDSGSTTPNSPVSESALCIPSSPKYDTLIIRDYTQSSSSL
pIC50: −log10 of the molar value.
# pIC50 >= 7 gives Satisfied, anything below gives Not satisfied

Please review the following examples before continuing.
N#Cc1cccnc1N1CCN(C(=O)c2ccc(Cl)c(C#Cc3ccccn3)c2)CC1	Not satisfied
COc1ccnc(N2CCN(C(=O)c3ccc(C(F)(F)F)c(C#Cc4ccccn4)c3)CC2)n1	Satisfied
O=C(c1ccc(OC(F)F)c(C#Cc2ccccn2)c1)N1CCN(c2ccccn2)CC1	Satisfied
O=C(c1ccc(C(F)(F)F)c(C#Cc2ccccn2)c1)N1CCN(c2ccccn2)CC1	Satisfied
O=C(c1ccc(Cl)c(C#Cc2ccccn2)c1)N1CCN(c2ccccn2)CC1	Satisfied

Request: Reported pIC50 at or above 7? `O=C(c1ccc(C(F)(F)F)c(C#Cc2ccccn2)c1)N1CCN(C(=O)c2ccco2)CC1`
Response: Satisfied

Request: Could you tell me if the measured pIC50 of `N#Cc1nccnc1N1CCN(C(=O)c2ccc(Cl)c(C#Cc3ccccn3)c2)CC1` reaches 7 or more?
Response: Satisfied

Request: State whether the measured pIC50 reaches 7, counting equality as reaching it, for `O=C(c1ccc(OC(F)F)c(C#Cc2ccccn2)c1)N1CCN(c2nsc3ccccc23)CC1`
Response: Satisfied

Request: Does the compound `O=C(c1ccc(OC(F)F)c(C#Cc2ccccn2)c1)N1CCN(c2noc3ccccc23)CC1` have recorded pIC50 that is 7 or more?
Response: Satisfied

Request: Quick check, pIC50 >= 7? `O=C(c1ccc(C(F)(F)F)c(C#Cc2ccccn2)c1)N1CCN(c2nccs2)CC1`
Response: Satisfied

Request: Please tell me: is the compound `O=C(c1ccc(C(F)(F)F)c(C#Cc2ccccn2)c1)N1CCN(c2noc3ccccc23)CC1` at or over 7 in terms of pIC50?
Response: Satisfied

Request: State whether the measured pIC50 reaches 7, counting equality as reaching it, for `O=C(c1ccc(Cl)c(C#Cc2ccccn2)c1)N1CCN(c2ccncc2)CC1`
Response: Not satisfied

Request: Dear colleague, could you confirm whether `O=C(c1ccc(Cl)c(C#Cc2ccccn2)c1)N1CCN(c2nccs2)CC1` has pIC50 at or above 7?
Response: Satisfied
